Molecular target: MAGI3_2, Q5TCQ9
Sequence (Q5TCQ9 398-503): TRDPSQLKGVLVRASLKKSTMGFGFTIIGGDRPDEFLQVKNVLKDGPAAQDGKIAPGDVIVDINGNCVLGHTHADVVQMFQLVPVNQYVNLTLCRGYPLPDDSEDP
Experiment: holdup assay
Parameters: key: below the threshold = too weak to quantify, mostly under pKd 3.1 to 4
Conditions: plain residues with an end cap or a label only (N-terminal biotin on a linker: ado-ado)
ENDPOINT: pKd

In [3]: df
Out[3]:
                       binder  endpoint         result_value
0  SSALYGESDL [ACTN2, P35609]       pKd  below the threshold
1  QSPANIYYKV [EFNB1, P52799]       pKd  below the threshold
2  SAAKVLTSMC [GHRHR, Q02643]       pKd  below the threshold
